tested on: 485176-168-R4-J1-PDC spheroids with HUVEC/MSC, viability; test: Anticancer human tumor 485176-168-R4-J1-PDC patient-derived pancreatic adenocarcinoma cell line growth inhibition [GQUAD]; conditions: second compound 0.1 µM; first compound 0.0316 µM; active compounds read low;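 note: spheroids exposed to compounds for seven days before readout; percent viability relative to DMSO vehicle control wells as 100%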
measuredEndpoint: viability, T/C (%)
Express your answer in %, writing the number without its unit.

| molecule | viability, T/C (%) |
| --- | --- |
| COc1ccc([C@@H](O)c2cc(-c3ncnc4cc(N5CCOCC5)ccc34)c(F)cc2Cl)nn1 + CN(C)c1ccc(Nc2c3ccc(NC(=O)CCN4CCCC4)cc3nc3cc(NC(=O)CCN4CCCC4)ccc23)cc1 | 97.6 |

Give viability, T/C for the following molecule: Cc1cccc(N(C)C(=O)C2C(O)CCN2c2nc(C)cc(C(F)(F)F)c2C#N)c1 (stereo not given) + CN(C)c1ccc(Nc2c3ccc(NC(=O)CCN4CCCC4)cc3nc3cc(NC(=O)CCN4CCCC4)ccc23)cc1
91.9

Give viability, T/C for the following molecule: CC[C@@]1(O)C(=O)OCc2c1cc1n(c2=O)Cc2cc3c(CN(C)C)c(O)ccc3nc2-1 + CN(C)c1ccc(Nc2c3ccc(NC(=O)CCN4CCCC4)cc3nc3cc(NC(=O)CCN4CCCC4)ccc23)cc1
81

Give viability, T/C for the following molecule: CCCS(=O)(=O)Nc1ccc(F)c(C(=O)c2c[nH]c3ncc(-c4ccc(Cl)cc4)cc23)c1F + Cc1[nH]c2ccc(F)cc2c1-c1nc2c3cccnc3c3ncccc3c2[nH]1
84.8

Give viability, T/C for the following molecule: CCc1c2c(nc3ccc(O)cc13)-c1cc3c(c(=O)n1C2)COC(=O)[C@]3(O)CC + Cc1[nH]c2ccc(F)cc2c1-c1nc2c3cccnc3c3ncccc3c2[nH]1
27.4

Give viability, T/C for the following molecule: COc1ccc([C@@H](O)c2cc(-c3ncnc4cc(N5CCOCC5)ccc34)c(F)cc2Cl)nn1 + Cc1cnc(CNC(=O)c2c(=O)c3ccc(N4CCCN(C)CC4)nc3n3c2sc2ccccc23)cn1
61.6

Give viability, T/C for the following molecule: C=CC(=O)N1CCN(c2nc(=O)n(-c3c(C)ccnc3C(C)C)c3nc(-c4c(O)cccc4F)c(F)cc23)C(C)C1 (stereo not given) + Cc1[nH]c2ccc(F)cc2c1-c1nc2c3cccnc3c3ncccc3c2[nH]1
80.1

Give viability, T/C for the following molecule: C=CC(=O)N1CCN(c2nc(=O)n(-c3c(C)ccnc3C(C)C)c3nc(-c4c(O)cccc4F)c(F)cc23)C(C)C1 (stereo not given) + CN(C)c1ccc(Nc2c3ccc(NC(=O)CCN4CCCC4)cc3nc3cc(NC(=O)CCN4CCCC4)ccc23)cc1
88.5

Give viability, T/C for the following molecule: C=CCn1c(=O)c2cnc(Nc3ccc(N4CCN(C)CC4)cc3)nc2n1-c1cccc(C(C)(C)O)n1 + CN(C)c1ccc(Nc2c3ccc(NC(=O)CCN4CCCC4)cc3nc3cc(NC(=O)CCN4CCCC4)ccc23)cc1
101

Give viability, T/C for the following molecule: C#Cc1c(F)ccc2cc(O)cc(-c3ncc4c(N5CC6CCC(C5)N6)nc(OCC56CCCN5CC(F)C6)nc4c3F)c12 (stereo not given) + Cc1[nH]c2ccc(F)cc2c1-c1nc2c3cccnc3c3ncccc3c2[nH]1
93

The reported measurements were obtained from PubChem BioAssay AID2060509.
